Molecular target: T1, hOrai1-mOrai1 ECL2 chimeric protein (human/mouse chimera, UniProt Q96D31 1-301)
T1 construct: human Orai1 with mouse ECL2; also called Ch
T1 sequence (Q96D31 other isoform, or with tags, fused parts or gaps mutant): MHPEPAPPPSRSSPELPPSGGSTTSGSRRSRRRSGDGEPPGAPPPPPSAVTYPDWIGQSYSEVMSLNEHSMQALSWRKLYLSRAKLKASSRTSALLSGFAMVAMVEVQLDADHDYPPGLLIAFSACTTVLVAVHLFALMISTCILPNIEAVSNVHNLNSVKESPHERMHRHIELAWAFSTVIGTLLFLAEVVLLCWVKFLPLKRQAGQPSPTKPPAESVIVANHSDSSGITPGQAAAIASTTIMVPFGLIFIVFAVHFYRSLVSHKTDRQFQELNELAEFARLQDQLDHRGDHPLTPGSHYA
Assay: FACS, 293EBNA
Set-up: concentration or dose not given beside the values
# reported POC (percent of control, FACS Geo Mean relative to Ch. 1); entries follow

Past entries and their recorded results:
1. mAb 2B7.1 (antibody, human IgG2, V domains shown, fully human, Campaign 1) VH: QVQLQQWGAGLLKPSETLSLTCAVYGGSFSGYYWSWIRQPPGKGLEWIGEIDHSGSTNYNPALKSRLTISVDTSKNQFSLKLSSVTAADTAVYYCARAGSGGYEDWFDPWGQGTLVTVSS VL: QSVLTQPPSVSGAPGQRVTISCTGSSSNIGTGYNVHWYQQFPRTDPKLLIYVYNIRPSGVPDRFSGSRSGTSASLAITGLQTEDEADYYCQSYDSSLSGVVFGGGTKLTVLG; < 1%
2. mAb 2C1.1 (antibody, human IgG2, lambda, V domains shown, fully human IgG2 lambda, Campaign 1; tested hybridoma-purified and recombinant; also called anti-hOrai1 mAb 2C1.1) VH: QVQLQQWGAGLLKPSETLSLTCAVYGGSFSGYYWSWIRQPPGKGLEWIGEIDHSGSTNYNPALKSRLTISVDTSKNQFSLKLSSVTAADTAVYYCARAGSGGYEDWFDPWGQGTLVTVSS VL: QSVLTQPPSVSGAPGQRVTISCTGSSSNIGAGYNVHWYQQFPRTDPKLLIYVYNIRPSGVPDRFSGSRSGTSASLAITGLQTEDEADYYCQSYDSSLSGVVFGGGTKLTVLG; < 1%

Now, please, on to the next binder.
[ask] Please look up its POC (percent of control, FACS Geo Mean relative to Ch. 1): mAb 2D2.1 (antibody, human IgG2, lambda, V domains shown, fully human IgG2 lambda, Campaign 1; also called mAb 2D.1) VH: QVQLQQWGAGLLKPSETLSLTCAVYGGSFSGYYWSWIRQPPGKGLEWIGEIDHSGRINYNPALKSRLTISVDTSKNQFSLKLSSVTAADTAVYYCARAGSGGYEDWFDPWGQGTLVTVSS VL: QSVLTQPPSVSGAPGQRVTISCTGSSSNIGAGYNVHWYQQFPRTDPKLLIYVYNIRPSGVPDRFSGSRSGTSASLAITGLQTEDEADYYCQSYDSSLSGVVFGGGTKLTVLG
[reply] < 1%
